Target Entity: Peptide 1593 (…) (Mycobacterium tuberculosis)
Test Name: ELISA, NNK clone supernatant on coated peptide (22 hits)
Measure: ratio (OD450 to WT OD450)

{"columns": ["Binder", "ratio (OD450 to WT OD450)"],
 "data": [
  ["65D3 chimeric Fab, NNK library L5 mutant S to M (VL S27M) (Fab, V domains shown) VH: QSLEESGGRLVTPGGSLTLTCTVSGFSLSTHDISWVRQAPGKGLEWIGVIARRGSTYYASWAKGRFTISKTSTTVDLKITSPTIEDTATYFCAREEFDFWGQGTLVTVSS VL: AVLTQTASPVSAAVGGTVTISCQSSQMVYNNKELSWFQQKPGQPPKLLISYASTLASGVPSRFKGSGSGTQFTLTISDLECDDAATYYCLGGYASTIDMWAFGGGTEVVVK", "1.47 fold of WT"]
]}

q: May I ask what ratio (OD450 to WT OD450) has been recorded for 65D3 chimeric Fab, NNK library L8 mutant N to K (VL N30K) (Fab, V domains shown) VH: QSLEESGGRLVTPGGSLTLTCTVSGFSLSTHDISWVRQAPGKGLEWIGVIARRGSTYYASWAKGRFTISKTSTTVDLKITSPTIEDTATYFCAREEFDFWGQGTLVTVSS VL: AVLTQTASPVSAAVGGTVTISCQSSQSVYKNKELSWFQQKPGQPPKLLISYASTLASGVPSRFKGSGSGTQFTLTISDLECDDAATYYCLGGYASTIDMWAFGGGTEVVVK ?
a: 1.37 fold of WT

q: May I ask what ratio (OD450 to WT OD450) has been recorded for 65D3 chimeric Fab, NNK library L18 mutant L to N (VL L55N) (Fab, V domains shown) VH: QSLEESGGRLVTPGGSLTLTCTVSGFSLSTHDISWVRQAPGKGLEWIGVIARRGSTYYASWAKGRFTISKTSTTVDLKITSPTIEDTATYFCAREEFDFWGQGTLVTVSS VL: AVLTQTASPVSAAVGGTVTISCQSSQSVYNNKELSWFQQKPGQPPKLLISYASTNASGVPSRFKGSGSGTQFTLTISDLECDDAATYYCLGGYASTIDMWAFGGGTEVVVK ?
a: 1.26 fold of WT

q: May I ask what ratio (OD450 to WT OD450) has been recorded for 65D3 chimeric Fab, NNK library L20 mutant S to H (VL S57H) (Fab, V domains shown) VH: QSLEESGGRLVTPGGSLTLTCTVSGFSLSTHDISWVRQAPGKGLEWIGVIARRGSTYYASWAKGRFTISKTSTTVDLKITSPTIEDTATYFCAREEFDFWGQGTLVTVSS VL: AVLTQTASPVSAAVGGTVTISCQSSQSVYNNKELSWFQQKPGQPPKLLISYASTLAHGVPSRFKGSGSGTQFTLTISDLECDDAATYYCLGGYASTIDMWAFGGGTEVVVK ?
a: 1.25 fold of WT

q: May I ask what ratio (OD450 to WT OD450) has been recorded for 65D3 chimeric Fab, NNK library L18 mutant L to S (VL L55S) (Fab, V domains shown) VH: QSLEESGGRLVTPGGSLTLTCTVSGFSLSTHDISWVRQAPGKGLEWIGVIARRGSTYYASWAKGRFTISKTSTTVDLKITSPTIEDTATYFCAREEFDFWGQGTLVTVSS VL: AVLTQTASPVSAAVGGTVTISCQSSQSVYNNKELSWFQQKPGQPPKLLISYASTSASGVPSRFKGSGSGTQFTLTISDLECDDAATYYCLGGYASTIDMWAFGGGTEVVVK ?
a: 1.3 fold of WT
